- Protocol Description: Pharmacokinetic experiment in rats
- Assay type: in vivo, SD rats
- Study Conditions: male, SD, rat, plasma; rats, Intravenous-Dose 4 mg/kg; read-out: Half life T1/2, h) (converted)
This section presents molecules with their documented half-life values.
Hi! Could you send only the number? It should be in h, unit omitted.

Sample answers from the record:
CCN(c1cc(-c2ccc3c(c2)C2(CCOCC2)C(=O)N3C)cc(C(=O)NCc2c(OC)cc(C)[nH]c2=O)c1C)C1CCN(CC(F)(F)F)CC1 :: 1.12
CCN(c1cc(-c2ccc3c(c2)NC(=O)C32CCOCC2)cc(C(=O)NCc2c(OC)cc(C)[nH]c2=O)c1C)C1CCOCC1OC (stereo not drawn) :: 1.26
CCN(c1cc(-c2ccc3c(c2)N(CC(F)(F)C(F)(F)F)C(=O)C32CCOCC2)cc(C(=O)NCc2c(C)cc(C)[nH]c2=O)c1C)C1CCOCC1 :: 1.62
CCN(c1cc(-c2ccc3c(c2)N(C(C)C)CC32CCOCC2)c(Cl)c(C(=O)NCc2c(OC)cc(C)[nH]c2=O)c1C)C1CCOCC1 :: 1.31
CCN(c1cc(-c2ccc3c(c2)N(C)C(=O)C32CCN(C(C)C)CC2)c(F)c(C(=O)NCc2c(C)cc(C)[nH]c2=O)c1C)C1CCOCC1 :: 1.72

As a next step, examine the molecule that follows.
[in] Please give the measured half-life for this molecule: CCN(c1cc(-c2cc3c(cc2F)C2(CCOCC2)C(=O)N3C)cc(C(=O)NCc2c(C)cc(C)[nH]c2=O)c1C)C1CCOCC1
[out] 1.37

###

- Protocol Description: Pharmacokinetic experiment in rats
- Format: in vivo, SD rats
- Study Conditions: male, SD, rat, plasma; rats, Intravenous-Dose 4 mg/kg; read-out: Half life T1/2, h) (converted)
Counter-ions that a name gives are not always drawn.
This section presents molecules with their documented half-life values.
# include the unit after the value

Sample answers from the record:
CCN(c1cc(-c2ccc3c(c2)N(C)C(=O)C32CCN(C(=O)OC)CC2)cc(C(=O)NCc2c(C)cc(C)[nH]c2=O)c1C)C1CCOCC1 :: 1.64 h
CCN(c1cc(-c2ccc3c(c2)N(C)C(=O)C32CCNCC2)cc(C(=O)NCc2c(OC)cc(C)[nH]c2=O)c1C)C1CCOCC1 :: 1.32 h
CCN(c1cc(-c2ccc3c(c2)NC(=O)C32CCOCC2)cc(C(=O)NCc2c(OC)cc(C)[nH]c2=O)c1C)C1CCOCC1 :: 1.15 h
CCN(c1cc(-c2ccc3c(c2)N(CC(F)(F)F)C(=O)C32CCOCC2)cc(C(=O)NCc2c(C)cc(C)[nH]c2=O)c1C)C1CCOCC1 :: 1.87 h
CCN(c1cc(-c2ccc3c(c2)NC(=O)C32CCOCC2)cc(C(=O)NCc2c(OC)cc(C)[nH]c2=O)c1C)C1CCNCC1 :: 1.15 h
CCN(c1cc(-c2cc3c(cc2F)CCC32CCOCC2)cc(C(=O)NCc2c(C)cc(C)[nH]c2=O)c1C)C1CCOCC1 :: 1.08 h
CCN(c1cc(-c2ccc3c(c2)NCC32CCOCC2)cc(C(=O)NCc2c(C)cc(C)[nH]c2=O)c1C)C1CCNCC1 :: 1.26 h
CCN(c1cc(-c2ccc3c(c2)CCC32CCOCC2)cc(C(=O)NCc2c(OC)cc(C)[nH]c2=O)c1C)C1CCOC(C)(C)C1 (stereo not shown) :: 1.64 h
CCN(c1cc(-c2ccc3c(c2)NC(=O)C32CCNCC2)cc(C(=O)NCc2c(OC)cc(C)[nH]c2=O)c1C)C1CCNCC1 :: 1.05 h
CCN(c1cc(-c2ccc3c(c2)N(CCOC)C(=O)C32CCOCC2)cc(C(=O)NCc2c(C)cc(C)[nH]c2=O)c1C)C1CCOCC1 :: 1.71 h

[in] Please give the measured half-life for this molecule: CCN(c1cc(-c2ccc3c(c2)C2(CC3)CC(C)N(CC)C(C)C2)cc(C(=O)NCc2c(OC)cc(C)[nH]c2=O)c1C)C1CCOCC1 (stereo not shown) [Example 50, formate]
[out] 1.34 h

[in] Please give the measured half-life for this molecule: CCN(c1cc(-c2ccc3c(c2)NCC32CCOCC2)cc(C(=O)NCc2c(OC)cc(C)[nH]c2=O)c1C)C1CCNCC1
[out] 1.05 h

[in] Please give the measured half-life for this molecule: CCN(c1cc(-c2ccc3c(c2)N(C(C)C(C)C)CC32CCOCC2)c(Cl)c(C(=O)NCc2c(C)cc(C)[nH]c2=O)c1C)C1CCOCC1 (stereo not shown)
[out] 1.53 h

###

- Measured On: UniProtKB Q15910
- Sequence (Q15910 whole entry): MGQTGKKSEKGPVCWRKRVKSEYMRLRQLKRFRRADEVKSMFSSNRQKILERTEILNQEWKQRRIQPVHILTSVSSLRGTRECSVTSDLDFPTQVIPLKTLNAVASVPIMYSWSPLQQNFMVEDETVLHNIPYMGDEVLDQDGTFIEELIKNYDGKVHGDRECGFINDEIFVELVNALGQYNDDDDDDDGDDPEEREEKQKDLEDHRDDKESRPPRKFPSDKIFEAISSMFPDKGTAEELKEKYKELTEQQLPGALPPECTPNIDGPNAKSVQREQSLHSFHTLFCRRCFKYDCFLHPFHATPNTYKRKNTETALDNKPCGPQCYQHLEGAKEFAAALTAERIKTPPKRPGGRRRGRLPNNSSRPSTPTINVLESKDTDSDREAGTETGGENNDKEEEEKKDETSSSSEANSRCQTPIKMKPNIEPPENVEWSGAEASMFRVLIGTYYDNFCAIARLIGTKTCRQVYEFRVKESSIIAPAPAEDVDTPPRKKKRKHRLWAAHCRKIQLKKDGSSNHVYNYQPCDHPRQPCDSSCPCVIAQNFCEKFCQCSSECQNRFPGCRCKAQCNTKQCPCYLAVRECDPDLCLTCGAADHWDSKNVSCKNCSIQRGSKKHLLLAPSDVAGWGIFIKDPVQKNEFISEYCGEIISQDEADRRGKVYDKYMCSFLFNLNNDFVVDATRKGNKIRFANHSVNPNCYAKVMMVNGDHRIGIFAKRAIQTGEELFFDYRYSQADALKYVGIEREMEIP
- Sequence (O75530 whole entry partner): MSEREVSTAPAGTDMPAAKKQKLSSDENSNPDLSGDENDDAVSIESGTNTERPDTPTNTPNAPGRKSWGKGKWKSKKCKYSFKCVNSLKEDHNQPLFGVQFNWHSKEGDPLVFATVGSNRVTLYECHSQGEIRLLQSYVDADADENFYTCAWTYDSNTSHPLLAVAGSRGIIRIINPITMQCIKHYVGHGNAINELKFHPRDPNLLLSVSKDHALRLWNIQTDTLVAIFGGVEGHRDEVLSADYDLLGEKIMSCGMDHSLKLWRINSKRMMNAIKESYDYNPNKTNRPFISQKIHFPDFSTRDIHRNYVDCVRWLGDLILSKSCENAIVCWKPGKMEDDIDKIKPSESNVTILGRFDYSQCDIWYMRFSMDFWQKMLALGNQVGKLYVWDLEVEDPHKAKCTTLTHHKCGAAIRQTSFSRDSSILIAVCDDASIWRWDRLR
- Sequence (Q15022 whole entry partner): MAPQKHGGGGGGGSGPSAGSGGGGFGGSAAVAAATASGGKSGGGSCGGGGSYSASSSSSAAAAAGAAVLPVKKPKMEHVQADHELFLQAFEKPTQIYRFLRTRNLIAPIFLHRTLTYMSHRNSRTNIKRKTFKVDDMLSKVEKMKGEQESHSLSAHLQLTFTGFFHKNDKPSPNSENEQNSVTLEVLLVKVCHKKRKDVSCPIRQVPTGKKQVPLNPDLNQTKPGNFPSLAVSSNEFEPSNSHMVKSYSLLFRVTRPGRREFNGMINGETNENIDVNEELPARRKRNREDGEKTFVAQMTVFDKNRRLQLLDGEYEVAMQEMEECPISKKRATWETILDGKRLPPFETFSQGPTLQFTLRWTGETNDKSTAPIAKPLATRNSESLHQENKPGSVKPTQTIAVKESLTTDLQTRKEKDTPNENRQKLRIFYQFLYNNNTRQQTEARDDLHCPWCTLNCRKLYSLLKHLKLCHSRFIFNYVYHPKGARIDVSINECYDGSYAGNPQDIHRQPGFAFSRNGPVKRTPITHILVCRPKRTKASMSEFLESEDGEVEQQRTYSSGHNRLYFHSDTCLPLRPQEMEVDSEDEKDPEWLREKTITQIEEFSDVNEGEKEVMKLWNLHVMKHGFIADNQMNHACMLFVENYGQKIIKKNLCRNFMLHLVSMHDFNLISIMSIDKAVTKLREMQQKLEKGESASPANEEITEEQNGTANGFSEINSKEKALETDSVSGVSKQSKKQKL
- Protocol Description: radiometric assay, activity to wild-type EZH2 of PRC2
- Study Conditions: read-out: Wild-type EZH2 IC50 Nanomoles per Liter
Recorded Metric: IC50 (nM)
Hi! Could you send only the number? It should be in nM, unit omitted.

Sample answers from the record:
CCN(c1cc(-c2ccc3c(c2)NC(=O)C32CCOCC2)cc(C(=O)NCc2c(C)cc(C)[nH]c2=O)c1C)C1CCC(N(C)C)CC1 (centres unmarked) :: 0.67
CCN(c1cc(-c2ccc3c(c2)NC(=O)C32CCOCC2)cc(C(=O)NCc2c(C)cc(C)[nH]c2=O)c1C)C1CCN(C2COC2)CC1 :: 0.83
CCN(c1cc(-c2ccc3c(c2)NC(=O)C32CCC(F)(F)CC2)cc(C(=O)NCc2c(C)cc(C)[nH]c2=O)c1C)C1CCOCC1 :: 0.95
CCN(c1cc(-c2cnc3c(c2)NC(=O)C32CCOCC2)cc(C(=O)NCc2c(C)cc(C)[nH]c2=O)c1C)C1CCOCC1 :: 1.16
CCN(c1cc(-c2ccc3c(c2)C2(CCOCC2)C(=O)N3C)cc(C(=O)NCc2c(OC)cc(C)[nH]c2=O)c1C)C1CCN(CC(F)(F)F)CC1 [Example 123] :: 1.15
CCN(c1cc(-c2ccc3c(c2)NC(=O)C32CCNCC2)cc(C(=O)NCc2c(C)cc(C)[nH]c2=O)c1C)C1CCNCC1 :: 1.08
CCN1CCC2(CC1)C(=O)Nc1cc(-c3cc(C(=O)NCc4c(C)cc(C)[nH]c4=O)c(C)c(N(CC)C4CCOCC4)c3)ccc12 :: 0.81
CCN(c1cc(-c2ccc3c(c2)C(=O)C2(CCOCC2)C3)cc(C(=O)NCc2c(C)cc(C)[nH]c2=O)c1C)C1CCOCC1 :: 0.81
CCN(c1cc(-c2ccc3c(c2)NC(=O)C32CCC(=O)CC2)cc(C(=O)NCc2c(C)cc(C)[nH]c2=O)c1C)C1CCOCC1 :: 0.87
CCN(c1cc(-c2ccc3c(c2)C2(CCOCC2)C(=O)N3)cc(C(=O)NCc2c(C)cc(C)[nH]c2=O)c1C)C1CCOCC1 :: 0.91

As a next step, examine the molecule that follows.
[in] Please give the measured IC50 for this molecule: CCN(c1cc(-c2ccc3c(c2)NC(=O)C32CCNCC2)cc(C(=O)NCc2c(C)cc(C)[nH]c2=O)c1C)C1CCSCC1
[out] 0.85

###

This section presents molecules with their documented inhibition in vivo at 100 mg/kg values.
- System: human diffuse large cell lymphoma B lymphocytes (Pfeiffer cell)
- Protocol Description: Pharmacodynamic experiment, Pfeiffer transplanted tumor model in mice
- Format: in vivo, mice (beige SCID)
- Study Conditions: Mus musculus, Pfeiffer, po, 504 h, intragastrically, once a day for 21 days, read-out: inhibited tumor growth
Hi! Could you send only the number? It should be in %, unit omitted.

Sample answers from the record:
CCN(c1cc(-c2ccc3c(c2)N(C)C(=O)C32CCNCC2)cc(C(=O)NCc2c(OC)cc(C)[nH]c2=O)c1C)C1CCOCC1 :: 96
CCN(c1cc(-c2ccc3c(c2)C2(CCOCC2)C(=O)N3)cc(C(=O)NCc2c(C)cc(C)[nH]c2=O)c1C)C1CCOCC1 :: 100
CCN(c1cc(-c2ccc3c(c2)NCC32CCOCC2)cc(C(=O)NCc2c(OC)cc(C)[nH]c2=O)c1C)C1CCNCC1 :: 98
CCN(c1cc(-c2ccc3c(c2)NC(=O)C32CCC(C)(O)CC2)cc(C(=O)NCc2c(C)cc(C)[nH]c2=O)c1C)C1CCOCC1 (stereo not shown) :: 94
CCN(c1cc(-c2ccc3c(c2)C2(CCOCC2)C(=O)N3C)cc(C(=O)NCc2c(C)cc(C)[nH]c2=O)c1C)C1CCOCC1 :: 98
CCN(c1cc(-c2ccc3c(c2)C2(CCOCC2)C(=O)N3C)cc(C(=O)NCc2c(OC)cc(C)[nH]c2=O)c1C)C1CCN(CC(F)(F)F)CC1 :: 101

As a next step, examine the molecule that follows.
[in] Please give the measured inhibition in vivo at 100 mg/kg for this molecule: CCN(c1cc(-c2cc3c(cc2F)C2(CCOCC2)C(=O)N3C)cc(C(=O)NCc2c(C)cc(C)[nH]c2=O)c1C)C1CCOCC1
[out] 99
